# Test system: Clone V cells
# ASSAY_REMARKS: CellTiter Blue (CTB) cell viability counter-screen
# TEST_PARAMETERS: CC_NCI screening; CTB cell viability; normalized to on-plate 0.3% DMSO controls
PROPERTY: Toxicity Assay Z-score
Numbers only.

Can you look up the measured Toxicity Assay Z-score of Cc1ccc(Nc2nccc(N(C)c3ccc4c(C)n(C)nc4c3)n2)cc1S(N)(=O)=O [PAZOPANIB] for me?
-1.83

Could you report Toxicity Assay Z-score for every entry in the following list?
1. C[C@@H](Oc1cc(-c2cnn(C3CCNCC3)c2)cnc1N)c1c(Cl)ccc(F)c1Cl [PF-2341066]
2. Nc1nc(Cl)nc2c1ncn2[C@H]1C[C@H](O)[C@@H](CO)O1 [Cladribine]
3. Cn1nnc2c(C(N)=O)ncn2c1=O [Temozolomide]
4. CNC(=O)c1cc(Oc2ccc(NC(=O)Nc3ccc(Cl)c(C(F)(F)F)c3)c(F)c2)ccn1 [Regorafenib]
5. CO[C@H]1C[C@@H]2CC[C@@H](C)[C@@](O)(O2)C(=O)C(=O)N2CCCC[C@H]2C(=O)O[C@H]([C@H](C)C[C@@H]2CC[C@@H](O)[C@H](OC)C2)CC(=O)[C@H](C)/C=C(\C)[C@@H](O)[C@@H](OC)C(=O)[C@H](C)C[C@H](C)/C=C/C=C/C=C/1C [RAPAMYCIN]

1: -2.39; 2: -2.26; 3: -2.19; 4: -1.59; 5: 1.51

Can you look up the measured Toxicity Assay Z-score of C[C@]12CC[C@@H]3c4ccc(O)cc4C[C@@H](CCCCCCCCC[S+]([O-])CCCC(F)(F)C(F)(F)F)[C@H]3[C@@H]1CC[C@@H]2O (stereo partly shown) [Fulvestrant] for me?
-2.29

* * *

# ASSAYED_SYSTEM: FGF14:Nav1.6 C-tail complex (Homo sapiens, UniProt Q92915+Q9UQD0)
# Construct: polymerase chain reaction (PCR) amplification of the FGF14 open reading frame (nt 1–855); C-terminal fragment of Nav1.6 (amino acids 1763–1976) fused with CD4ΔC-tail (amino acids 1–395); expressed in transfected cells
# Sequence (Q92915 1-252 isoform Q92915-2): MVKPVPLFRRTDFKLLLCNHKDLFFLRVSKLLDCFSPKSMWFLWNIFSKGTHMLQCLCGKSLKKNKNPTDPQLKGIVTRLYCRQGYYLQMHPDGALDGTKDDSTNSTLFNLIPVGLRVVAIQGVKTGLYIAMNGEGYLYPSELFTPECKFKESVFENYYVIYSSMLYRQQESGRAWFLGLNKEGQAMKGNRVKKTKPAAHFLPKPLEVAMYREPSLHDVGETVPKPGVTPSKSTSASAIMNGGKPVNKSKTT
# Sequence (Q9UQD0 1763-1976 limits assumed): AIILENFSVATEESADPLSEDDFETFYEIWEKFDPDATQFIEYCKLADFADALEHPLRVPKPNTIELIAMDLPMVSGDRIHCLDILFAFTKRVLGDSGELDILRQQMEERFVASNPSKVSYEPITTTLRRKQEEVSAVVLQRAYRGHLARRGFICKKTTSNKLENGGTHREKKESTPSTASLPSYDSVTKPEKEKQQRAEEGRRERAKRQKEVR
# ASSAY_REMARKS: Split-luciferase complementation assay (LCA) in Clone V double stable HEK293 cells
# Assay type: cell-based
# TEST_PARAMETERS: CC_NCI screening; LCA luminescence, biological replicate Set 1; normalized to on-plate 0.3% DMSO controls (n=16 per plate)
Please go through the items and note down their Split Luciferase Assay % Lum Set 1.
Give bare numbers, in %.

The cases that follow already have their Split Luciferase Assay % Lum Set 1 on record.
Can you look up the measured Split Luciferase Assay % Lum Set 1 of `C=CC[C@@H]1/C=C(\C)C[C@H](C)C[C@H](OC)[C@H]2O[C@@](O)(C(=O)C(=O)N3CCCC[C@H]3C(=O)O[C@H](/C(C)=C/[C@@H]3CC[C@@H](O)[C@H](OC)C3)[C@H](C)[C@@H](O)CC1=O)[C@H](C)C[C@@H]2OC` for me?
80.77

Here is the next compound: `CN(C)S(=O)(=O)c1ccc2c(c1)/C(=C/c1cc3c([nH]1)CCCC3)C(=O)N2`
128.60

Next, consider the following compound.
Can you look up the measured Split Luciferase Assay % Lum Set 1 of CNC(=O)c1ccc(N2C(=S)N(c3ccc(C#N)c(C(F)(F)F)c3)C(=O)C2(C)C)cc1F [Enzalutamide] for me?
94.90
